In this section, each of the compounds is paired with its reported pIC50.
test-system: Syk (356-635 amino acids) catalytic domain (Homo sapiens (Human), UniProt P43405)
method-summary: Inhibition of enzymatic Syk kinase activity (radiometric)
Type: biochemical
settings: read-out: IC50 Syk
pIC50: −log10 of the molar value. Structures can show the parent of a compound that is named as a salt.

Solved entries:
> print(dat)
                                   compound                               test.system  measured.metric  reported.result
1  O=c1[nH]ncc2nc(N3CC[S+]([O-])CC3)nc(Nc3ccc(CN4CCNCC4)cc3)c12 [Example 44, hydrochloride]  Syk (356-635 amino acids) catalytic domain (Homo sapiens (Human), UniProt P43405)            pIC50           < 7.00
2  O=c1[nH]ncc2nc(-c3ccccc3)nc(Nc3ccc(N(CCO)CCO)cc3)c12 [Example 10]  Syk (356-635 amino acids) catalytic domain (Homo sapiens (Human), UniProt P43405)            pIC50           > 7.30
3  CN1CCN(c2ccc(Nc3nc(N4CCC(CC#N)CC4)nc4cn[nH]c(=O)c34)cn2)CC1 [Example 243]  Syk (356-635 amino acids) catalytic domain (Homo sapiens (Human), UniProt P43405)            pIC50           > 7.30
4  N#CCC1CCN(c2nc(Nc3ccc(CN4CCC(C(=O)O)CC4)cc3)c3c(=O)[nH]ncc3n2)CC1 [Example 78]  Syk (356-635 amino acids) catalytic domain (Homo sapiens (Human), UniProt P43405)            pIC50           > 7.00
5  COc1cccc(-c2nc(Nc3ccc(N4CCC5(CC4)CC5C(=O)O)cc3)c3c(=O)[nH]ncc3n2)c1 (stereo not drawn) [Example 47]  Syk (356-635 amino acids) catalytic domain (Homo sapiens (Human), UniProt P43405)            pIC50           > 7.00
6  N#CCC1CCN(c2nc(Nc3ccc4[nH]nnc4c3)c3c(=O)[nH]ncc3n2)CC1 [Example 335]  Syk (356-635 amino acids) catalytic domain (Homo sapiens (Human), UniProt P43405)            pIC50           > 7.30

Inquiry: Identify the reported pIC50 for the following entry. O=C(O)C1CC12CCN(c1ccc(Nc3nc(C4CCCCCC4)nc4cn[nH]c(=O)c34)cc1)CC2 (stereo not drawn) [Example 81]
Reply text: > 7.30

Inquiry: Identify the reported pIC50 for the following entry. N#CCC1CCN(c2nc(Nc3ccc(N4CCC(O)CC4)cc3)c3c(=O)[nH]ncc3n2)CC1 [Example 189]
Reply text: > 8.00

Inquiry: Identify the reported pIC50 for the following entry. O=C(O)C1CC12CCN(c1ccc(Nc3nc(-c4ccccc4)nc4cn[nH]c(=O)c34)cc1)CC2 (stereo not drawn) [Example 22]
Reply text: > 7.00

Inquiry: Identify the reported pIC50 for the following entry. CN1CCN(C(=O)COc2ccc(Nc3nc(N4CCC(CC#N)CC4)nc4cn[nH]c(=O)c34)cc2)CC1 [Example 271]
Reply text: > 8.00

Inquiry: Identify the reported pIC50 for the following entry. CN1CCN(c2nc(Nc3ccc(CN4CCNCC4)cc3)c3c(=O)[nH]ncc3n2)CC1 [Example 45, hydrochloride]
Reply text: < 7.00

Inquiry: Identify the reported pIC50 for the following entry. O=C(O)C1CC12CCN(Cc1ccc(Nc3nc(-c4ccccc4)nc4cn[nH]c(=O)c34)cc1)CC2 (stereo not drawn) [Example 21]
Reply text: < 7.00
